binders and their reported ELISA signal
- study target: T1, cynomolgus monkey HVEM (cynomolgus monkey, UniProt A0A2K5W0R1 39-203); also: test concentration or dose not given here
- T1 sequence: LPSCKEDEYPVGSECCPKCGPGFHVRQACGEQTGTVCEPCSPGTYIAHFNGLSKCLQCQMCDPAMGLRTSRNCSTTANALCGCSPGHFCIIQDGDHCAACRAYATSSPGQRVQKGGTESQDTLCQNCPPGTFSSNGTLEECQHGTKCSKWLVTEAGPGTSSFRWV
- test: ELISA
recorded metric: ELISA signal

[[record]]
binder = "Ab_007 (H5S14-6A6A) (antibody, V domains shown, also called Ab_7) VH: EVKLVESGGGLVQPGGSLRLSCATSGFTFTDYYMSWVRQTPGKALEWLGFIRNQANAYTTEYSVSVKGRFTISRDNSQSILYLQMNTLRVEDSATYYCARVPDYWGQGTTLTVSS VL: DIQMTQSPASQSASLGESVTITCLASQTIGTWLAWYQQKPGKSPQLLIYAATSLADGVPSRFSGSGSGTKFSFKISSLQAEDFVSYYCQQLHSTPYTFGGGTKLEIK"
value_observed = 0.739

[[record]]
binder = "Ab_043 (H5S15-29A24A) (antibody, V domains shown, also called Ab_43) VH: EVQLQQSGAELVRPGALVKLSCKASGFNIKDDYMHWVKQRPEQGLEWIGWIDPENGNTIYDPKFQGKASITADTSSNTAYLQLSSLTSEDTAVYYCARGYSSSPYWGQGTLVTVSA VL: DIVLTQSPASLAVSLGQRATISCKASQSVDYDGNSYMNWYQQKPRQPPKLLIYAASNLESGIPARFRGSGSGTDFTLNIHPVEEEDAATYYCQQSNEDPFTFGSGTKLEIK"
value_observed = 0.058

[[record]]
binder = "Ab_033 (H5S15-7B8A) (antibody, V domains shown, also called Ab_33) VH: QIQLVQSGPELKKPGETVKISCKASGYTFTNYGMNWVKQAPGKGLKWVGWINTYTGEPTYADDFKGRFAFSLETSASTAYLQINNLKNEDMATYFCARSFYGSEAYWGQGTLVTVSA VL: QIVLTQSPAIMSASLGEEITLTCSASSSVSFMHWYQQKSGTSPKLLIYSTSNLASGVPSRFSGSGSGTFYSLTISSVEAEDAADYYCHQWSSYLWTFGGGAKLEIK"
value_observed = 3.02

[[record]]
binder = "Ab_060 (H5S19-8A16A) (antibody, V domains shown, also called Ab_60) VH: QIQLVQSGPELKKPGETVKISCKASGYTFTNFGVNWVKQAPGKGLKWMGWINTYTGEPTYADDFKGRFAFSLETSASTAYLRINNLKNEDTASYFCARSYYANNAYWGQGTTLTVSS VL: QIVLTQSPAIMSASPGEKVTLTCSASSSVDSSYLYWFQQKPGSSPKLWIYGTSNLASGVPARFSGSGSGTSYSLTISSMEAEDAASYFCHQWNSYPWTFGGGTKLEIK"
value_observed = 3.03

[[record]]
binder = "Ab_038 (H5S15-19A18A) (antibody, V domains shown, also called Ab_38) VH: QVQLKESGPGLVAPSQSLSITCTVSGFSLTGYGVNWVRQPPGKGLEWLGMIWGDGGTDYNSALKSRLSISKDNSKSQVFLKMNSLQTDDTARYYCARDNYHTVVNGDYWGQGTSVTVSS VL: ENVLTQSPAIMSASPGEKVTMTCRASSSVSSSYLHWYQQKSGASPKLWIYSTSNLASGVPARFSGSGSGTSYSLTISSVEAEDAATYYCQQYSGYPLTFGGGTKLEIK"
value_observed = 0.06

[[record]]
binder = "Ab_027 (H5S15-17A16A) (antibody, V domains shown, also called Ab_27) VH: EVQLQQSGAELVKPGASVKLSCTASGFNIKDTYMHWVKQRPEQGLEWIGRIAPANGKTKFDPKFQGKATITADTSSNTAYLQLSSLTSEDTAVYYCANYYGRSNDWFVYWGQGTLVTVSA VL: DVLMTQTPLSLPVSLGDQASISCRSSQSIVHSNGITYLEWYLQKPGQSPELLIYKVSNRFSGVPDRFSGSGSGTDFTLKISRVEAEDLGVYYCFQGSHVPLTFGAGTKLELK"
value_observed = 0.064

[[record]]
binder = "Ab_050 (H5S19-9A11A) (antibody, V domains shown, also called Ab_50) VH: QVQLKQSGPGLVQPSQSLSITCTVSGFSLTTYGVHWVRQSPGKGLEWLGVIWSGGSTDYNAAFISRLSISKDNSKSQVFFKMNSLQANDTAIYYCARRGYGSPYYYAMDYWGQGTSVTVSS VL: EIVLTQSPALMAASPGEKVTITCSVSSSISSSNLHWYQQKSETSPKPWIYGTSNLASGVPVRFSGSGSGTSYSLTISSMEAEDAATYYCQQWSSYPLTFGAGTKLELK"
value_observed = 0.094

[[record]]
binder = "Ab_076 (H5S20-26A22A) (antibody, V domains shown, also called Ab_76) VH: QIQLVQSGPELKKPGETVKISCRASGYTFTNYGMNWVKQAPGKGLKWMGWINTYTGEPTYADDFKGRFAFSLETSASSAYLQINNLKNEDMATYFCARSLYYGDNYEAYWGQGTLVTVSA VL: QIVLTQSPAIMSASLGEEITLTCSASSSVSYMHWYQQKSGSSPKLLIYTTSNLASGVPSRFSGSGSGTFYSLTISSVEAEDAADYYCHQWSSYTWTFGGGTKLEIK"
value_observed = 2.96

[[record]]
binder = "Ab_037 (H5S15-13A15A) (antibody, V domains shown, also called Ab_37) VH: QVQLKQSGPGLVQPSQSLSITCTVSGFSLTSYGVHWVRQSPGKGLEWLGVIWRGGSTDYNAAFMSRLSITKDNSKSQVFFKMNSLQADDTAIYYCAKTGFAYWGQGTLVTVSA VL: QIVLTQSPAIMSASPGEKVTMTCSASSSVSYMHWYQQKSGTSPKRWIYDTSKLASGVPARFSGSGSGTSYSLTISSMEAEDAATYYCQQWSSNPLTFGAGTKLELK"
value_observed = 0.06

[[record]]
binder = "Ab_075 (H5S20-12A10A) (antibody, V domains shown, also called Ab_75) VH: QIQLVQSGPELKKPGETVKISCKASGYTFTNFGMNWVRQAPGKGLKWMGWINTYTGEPTYADDFKGRFAFSLETSASTAYLQINNLKNDDMATYFCARSLYGNRDYWGQGTTLTVSS VL: QIVLTQSPAIMSASLGEEITLTCSASSSVSYMHWYQQRSGTSPKLLIYSTSNLASGVPSRFSGSGSGTFYSLTISSVEAEDAADYYCHQWSSYRTFGGGTKLEIK"
value_observed = 3.04


FYI, the data here is from patent US20240317871A1.
